# Tested on: 4G (DNA, G4) AGGGTTAGGGTTAGGGTTAGGGTTACCTAGGCATCCTCCAGTTCCTGGAGTCAGTG
# experiment_summary: fluorescent dye displacement
# condition_summary: 100 mM KCl; 10 mM Tris-HCl pH 7.2; B6,5 1 µM displaced; 0.5 µM nucleic acid
attribute_measured: binding

O=C(c1cc(Cc2n[nH]c(=O)c3ccccc23)ccc1F)N1CCN(C(=O)C2CC2)CC1 | yes
O=C(/C=C/C=C/c1ccc2c(c1)OCO2)N1CCCCC1 | yes
C[n+]1ccc(-c2c3nc(c(-c4cc[n+](C)cc4)c4ccc([nH]4)c(-c4cc[n+](C)cc4)c4nc(c(-c5cc[n+](C)cc5)c5ccc2[nH]5)C=C4)C=C3)cc1 | yes
CN1CCC[C@H]1CCNC(=O)c1cn2c3c(c(N4CCC(c5cnccn5)C4)c(F)cc3c1=O)Oc1cc3ccccc3cc1-2 (stereo partly shown) | yes
